System: PLN cells
Assay: In vitro proliferation of PLN cells (3H-TdR incorporation) after footpad immunization
Type: in vivo, B6C3 F1 mice
Settings: disulfide (di-Cys) polymeric form; summary of mouse studies
measurement.kind: T cell response directed against both the corresponding peptide and native gp160

sequence.content	result
FLGFLGAAGSTMGAASLTLTVQANQ [Peptide 63]	strong T cell response
YLRDQQLLGIWGC [Peptide 61]	strong T cell response
VYYGVPVWKEA [Peptide 104]	strong T cell response
SVITQACSKVSFE [Peptide 113]	strong T cell response

###

For each entry below, report its T-cell Proliferation Responses, Rhesus Monkey #23 value.
Tested on: PBMC
Test: PBMC proliferation after immunization with a mixture of eight synthetic peptides
Format: in vivo, rhesus monkeys
Design: key: (-), no detectable response; (1+), poor response; (2+), good response; (3+), better response; (4+, 6+), best response; (4+, 6+), best response
Conditions: PBMC response to the individual antigen after immunization with mixture of eight peptides

sequence.content	result
GTGPCTNVSTVQC [Peptide 116]	3+
SVITQACSKVSFE [Peptide 113]	2+
FLGFLGAAGSTMGAASLTLTVQANQ [Peptide 63]	4+

Batch lookup, T-cell Proliferation Responses, Rhesus Monkey #23 per entry.
1. LWDQSLKPCVKLT [Peptide 111]
2. VYYGVPVWKEA [Peptide 104]
3. YLRDQQLLGIWGC [Peptide 61]

2+
2+
3+

###

Tested on: PBMC
Experiment: PBMC proliferation after immunization with a mixture of eight synthetic peptides
Assay type: in vivo, rhesus monkeys
Parameters: key: (-), no detectable response; (1+), poor response; (2+), good response; (3+), better response; (4+, 6+), best response; (4+, 6+), best response
Settings: PBMC response to the individual antigen after immunization with mixture of eight peptides
measurement.kind: T-cell Proliferation Responses, Rhesus Monkey #283C

Sample records with T-cell Proliferation Responses, Rhesus Monkey #283C:
sequence.content	result
SVITQACSKVSFE [Peptide 113]	2+
FLGFLGAAGSTMGAASLTLTVQANQ [Peptide 63]	3+
VYYGVPVWKEA [Peptide 104]	4+
GTGPCTNVSTVQC [Peptide 116]	2+
YLRDQQLLGIWGC [Peptide 61]	2+

Then there is this sequence:
Kindly indicate its recorded T-cell Proliferation Responses, Rhesus Monkey #283C. Item: LWDQSLKPCVKLT [Peptide 111]
3+
